# experimental_system: HIV-1 92RW020 Env on pseudovirus (HIV-1 strain 92RW020)
# test_name: cell-based or functional assay
test_readout: IC50 (ug/ml), pseudovirus neutralisation, TZM-bl assay (µg/mL)
Supply the numeric figure in µg/mL, leaving out any unit text.

binder 1503_H05 (PG16) antibody, sister clone of 1443_C16 (antibody, V domains shown) VH: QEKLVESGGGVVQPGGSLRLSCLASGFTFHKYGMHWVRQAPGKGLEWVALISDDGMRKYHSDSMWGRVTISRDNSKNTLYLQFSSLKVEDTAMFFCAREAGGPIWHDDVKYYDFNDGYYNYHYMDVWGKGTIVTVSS VL: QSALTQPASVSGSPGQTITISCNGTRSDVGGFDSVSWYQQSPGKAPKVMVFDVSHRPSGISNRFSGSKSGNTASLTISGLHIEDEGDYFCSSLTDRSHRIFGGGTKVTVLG , IC50 (ug/ml), pseudovirus neutralisation, TZM-bl assay observed: 0.02

binder 1489_I13 (PG16) antibody, sister clone of 1443_C16 (antibody, V domains shown) VH: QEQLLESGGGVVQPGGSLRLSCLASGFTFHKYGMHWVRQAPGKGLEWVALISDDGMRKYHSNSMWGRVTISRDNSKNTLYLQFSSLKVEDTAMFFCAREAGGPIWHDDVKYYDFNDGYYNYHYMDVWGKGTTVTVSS VL: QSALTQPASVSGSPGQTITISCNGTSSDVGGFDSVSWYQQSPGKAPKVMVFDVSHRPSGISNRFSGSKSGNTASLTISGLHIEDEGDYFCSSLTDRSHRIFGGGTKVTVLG , IC50 (ug/ml), pseudovirus neutralisation, TZM-bl assay observed: 0.03

binder 1469_M23 (PG16) antibody, sister clone of 1443_C16 (antibody, V domains shown) VH: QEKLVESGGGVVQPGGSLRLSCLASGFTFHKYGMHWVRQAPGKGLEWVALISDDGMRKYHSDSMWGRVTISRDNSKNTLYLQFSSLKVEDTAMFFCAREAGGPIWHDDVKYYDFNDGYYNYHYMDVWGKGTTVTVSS VL: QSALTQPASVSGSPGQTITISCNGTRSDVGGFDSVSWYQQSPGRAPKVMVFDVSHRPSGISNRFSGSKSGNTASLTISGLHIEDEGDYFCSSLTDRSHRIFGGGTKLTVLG , IC50 (ug/ml), pseudovirus neutralisation, TZM-bl assay observed: 0.05
